Property: IC50; scope: individual compounds
Target Or System: interaction between glucokinase (GK) and glucokinase regulatory protein (GKRP) (Homo sapiens, UniProt Q14397)
Sequence (Q14397 1-625): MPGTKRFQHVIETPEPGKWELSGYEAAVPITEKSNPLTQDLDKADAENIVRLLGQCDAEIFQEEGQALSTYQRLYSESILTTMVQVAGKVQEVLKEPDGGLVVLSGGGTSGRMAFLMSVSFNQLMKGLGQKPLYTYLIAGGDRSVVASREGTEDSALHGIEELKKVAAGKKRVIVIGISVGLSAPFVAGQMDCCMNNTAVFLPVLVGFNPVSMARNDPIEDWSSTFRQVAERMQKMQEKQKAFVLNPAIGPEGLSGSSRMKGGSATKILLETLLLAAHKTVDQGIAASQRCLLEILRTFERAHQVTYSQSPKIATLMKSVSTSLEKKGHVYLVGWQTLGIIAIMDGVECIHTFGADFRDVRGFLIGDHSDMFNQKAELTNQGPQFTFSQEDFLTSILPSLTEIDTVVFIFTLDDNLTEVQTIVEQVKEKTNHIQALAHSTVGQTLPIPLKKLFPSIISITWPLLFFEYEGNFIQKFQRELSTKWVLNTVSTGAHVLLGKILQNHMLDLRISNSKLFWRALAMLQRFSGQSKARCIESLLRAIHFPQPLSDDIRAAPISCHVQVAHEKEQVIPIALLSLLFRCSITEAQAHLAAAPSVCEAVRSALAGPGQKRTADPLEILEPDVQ
Experimental Protocol: biochemical
Assay type: binding
Setup Conditions: avi-tagged GKRP, GK-fluorescein, AlphaScreen beads; read-out: GK-GKRP IC50 (Binding)
Write the value in nM as a bare number.

See these solved cases before continuing.
Compound	Outcome Measure	Numeric Readout
CC(C)C1C(=O)NCCN1C[C@H]1CN(S(=O)(=O)c2ccc(N)s2)CCN1c1ncc(C(O)(C(F)(F)F)C(F)(F)F)cn1 (single isomer, unassigned) [Example 184 Peak #1]	IC50	1
CC(O)(c1ccc(N2CCN(S(=O)(=O)c3cccs3)C[C@@H]2CS(=O)(=O)c2ccccc2)cc1)C(F)(F)F (single isomer, unassigned) [Example 187 Peak#2]	IC50	59
CC(C)CS(=O)(=O)N(C[C@H]1CN(S(=O)(=O)c2cccs2)CCN1c1ccc(C(C)(O)C(F)(F)F)cc1)c1ccccc1 (mixture of isomers)	IC50	6
CC(O)(c1ccc(N2CCN(S(=O)(=O)c3cccs3)C[C@@H]2C[S+]([O-])c2cccc(F)c2)cc1)C(F)(F)F (single isomer, unassigned) [Example 189 Peak#2]	IC50	717

Then this compound:
-- ask Find the recorded IC50 belonging to CC(C)CN(C[C@H]1CN(S(=O)(=O)c2cccs2)CCN1c1ccc(C(C)(O)C(F)(F)F)cc1)S(C)(=O)=O (mixture of isomers) and report it.
-- reply 4

###

Property: EC50; scope: individual compounds
Target Or System: GKRP (Glucokinase Regulatory Protein) with human His-hepatic GK (Homo sapiens, UniProt Q14397)
Sequence (Q14397 1-625): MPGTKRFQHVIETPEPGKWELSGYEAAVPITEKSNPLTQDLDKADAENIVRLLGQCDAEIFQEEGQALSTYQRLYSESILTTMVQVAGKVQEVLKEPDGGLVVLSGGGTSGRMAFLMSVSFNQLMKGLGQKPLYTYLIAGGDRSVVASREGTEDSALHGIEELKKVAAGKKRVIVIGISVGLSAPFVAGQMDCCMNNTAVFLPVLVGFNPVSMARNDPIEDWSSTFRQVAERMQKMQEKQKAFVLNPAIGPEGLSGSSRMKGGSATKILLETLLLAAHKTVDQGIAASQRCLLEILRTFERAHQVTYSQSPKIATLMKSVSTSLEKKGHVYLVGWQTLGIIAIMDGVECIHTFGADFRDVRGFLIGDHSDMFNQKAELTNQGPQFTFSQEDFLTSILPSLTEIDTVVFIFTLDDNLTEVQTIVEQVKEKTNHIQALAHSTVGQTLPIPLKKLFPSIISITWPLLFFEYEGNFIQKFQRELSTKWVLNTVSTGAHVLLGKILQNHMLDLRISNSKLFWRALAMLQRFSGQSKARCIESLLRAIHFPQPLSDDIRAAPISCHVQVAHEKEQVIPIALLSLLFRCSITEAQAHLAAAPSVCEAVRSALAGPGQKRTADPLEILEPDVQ
Experimental Protocol: biochemical
Setup Conditions: 13C-glucose-6-phosphate formation; 280 nM GKRP (10×), 30 nM GK (5×); read-out: GK-GKRP EC50 (LC MS/MS-2)
Write the value in nM as a bare number.

See these solved cases before continuing.
Compound	Readout Unit	Numeric Readout
CC(C)C1C(=O)NCCN1C[C@H]1CN(S(=O)(=O)c2cccs2)CCN1c1ccc(C(C)(O)C(F)(F)F)cc1 (single isomer, unassigned) [Example 181 Peak #1]	nM	63
Nc1ccc(S(=O)(=O)N2CCN(c3ccc(C(O)(C(F)(F)F)C(F)(F)F)cc3)[C@@H](CC3CCOCC3)C2)cn1	nM	37
CC(O)(c1ccc(N2CCN(S(=O)(=O)c3cccs3)C[C@@H]2CN(C2COC2)S(C)(=O)=O)cc1)C(F)(F)F (mixture of isomers)	nM	257
Nc1ccc(S(=O)(=O)N2CCN(c3ncc(C(O)(C(F)(F)F)C(F)(F)F)cn3)[C@@H](CN3C4COCC3CC(O)C4)C2)cn1 (stereo partly drawn) [Example 99 nonan-7-ol (endo)]	nM	25
CC(O)(c1ccc(N2CCN(S(=O)(=O)c3cccs3)C[C@@H]2CS(=O)(=O)c2cccc(F)c2)cc1)C(F)(F)F (mixture of isomers) [Example 189 Peak#1]	nM	235

-- ask Find the recorded EC50 belonging to CC(=O)N(C[C@H]1CN(S(=O)(=O)c2cccs2)CCN1c1ccc(C(C)(O)C(F)(F)F)cc1)C(C)C (mixture of isomers) and report it.
-- reply 391

-- ask Next compound: CC(O)(c1ccc(N2CCN(S(=O)(=O)c3cccs3)C[C@@H]2CN2[C@@H]3COC[C@H]2CC(=O)C3)cc1)C(F)(F)F (single isomer, unassigned) [Example 106 Peak#2]
-- reply 142

-- ask Next compound: O=S(=O)(c1cccs1)N1CCN(c2ncc(C(O)(C(F)(F)F)C(F)(F)F)cn2)[C@@H](CN2C3COCC2C(O)C3)C1 (single isomer, unassigned) [Example 79 Peak #1]
-- reply 50

-- ask Next compound: CC(C)N(C[C@H]1CN(S(=O)(=O)c2cccs2)CCN1c1ccc(C(C)(O)C(F)(F)F)cc1)S(=O)(=O)N(C)C (mixture of isomers)
-- reply 23

-- ask Next compound: CC(O)(c1ccc(N2CCN(S(=O)(=O)c3cccs3)C[C@@H]2CS(=O)(=O)c2ccccc2)cc1)C(F)(F)F (single isomer, unassigned) [Example 187 Peak#1]
-- reply 49

-- ask Next compound: CC(C)CN(C[C@H]1CN(S(=O)(=O)c2ccc(N)s2)CCN1c1ncc(C(O)(C(F)(F)F)C(F)(F)F)cn1)S(C)(=O)=O
-- reply 13

###

Property: EC50; scope: individual compounds
Target Or System: GKRP (Glucokinase Regulatory Protein) with human His-hepatic GK (Homo sapiens)
Sequence (Q14397 1-625): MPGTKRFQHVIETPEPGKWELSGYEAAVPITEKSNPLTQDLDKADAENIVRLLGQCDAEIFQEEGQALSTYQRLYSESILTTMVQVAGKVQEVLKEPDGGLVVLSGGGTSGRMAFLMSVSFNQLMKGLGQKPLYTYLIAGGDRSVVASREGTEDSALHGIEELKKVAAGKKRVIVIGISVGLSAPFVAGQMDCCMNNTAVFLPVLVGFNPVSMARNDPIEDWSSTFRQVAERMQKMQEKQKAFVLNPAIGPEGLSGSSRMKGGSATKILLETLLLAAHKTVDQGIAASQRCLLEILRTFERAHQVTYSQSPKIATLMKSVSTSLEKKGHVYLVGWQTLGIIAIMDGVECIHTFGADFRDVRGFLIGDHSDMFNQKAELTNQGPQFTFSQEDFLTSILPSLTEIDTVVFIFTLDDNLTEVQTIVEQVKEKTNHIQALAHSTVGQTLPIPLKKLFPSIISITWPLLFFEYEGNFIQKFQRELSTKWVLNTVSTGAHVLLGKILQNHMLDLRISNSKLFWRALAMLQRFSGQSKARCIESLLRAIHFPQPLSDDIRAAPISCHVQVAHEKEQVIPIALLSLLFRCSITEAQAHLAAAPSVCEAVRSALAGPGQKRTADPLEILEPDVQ
Experimental Protocol: biochemical
Setup Conditions: 13C-glucose-6-phosphate formation; 280 nM GKRP (10×), 30 nM GK (5×); read-out: GK-GKRP EC50 (LC MS/MS-2)
Write the value in nM as a bare number.

See these solved cases before continuing.
Compound	Outcome Measure	Numeric Readout
CCOC(=O)CC1COCCN1C[C@H]1CN(S(=O)(=O)c2cccs2)CCN1c1ccc(C(C)(O)C(F)(F)F)cc1 (mixture of isomers)	EC50	308
O=S(=O)(c1ccccc1)N1CCN(c2ncc(C(O)(C(F)(F)F)C(F)(F)F)cn2)[C@@H](CN2C3COCC2C(O)C3)C1 (mixture of isomers)	EC50	136
CC(O)(c1ccc(N2CCN(S(=O)(=O)c3cccs3)C[C@@H]2CN2CCC[C@H](O)C2)cc1)C(F)(F)F (mixture of isomers)	EC50	880
Cn1cnc(COC[C@H]2CN(S(=O)(=O)c3cccs3)CCN2c2ccc(C(C)(O)C(F)(F)F)cc2)c1 (single isomer, unassigned) [Example 119 Peak #1]	EC50	235
O=S(=O)(c1cccs1)N1CCN(c2ccc(C(O)(C(F)(F)F)C(F)(F)F)cc2C#CCO)CC1	EC50	557

-- ask Tell me reported EC50 for Nc1ccc(S(=O)(=O)N2CCN(c3ncc(C(O)(C(F)(F)F)C(F)(F)F)cn3)[C@@H](CN3C4COCC3CC(=O)C4)C2)cn1 , tested with GKRP (Glucokinase Regulatory Protein) with human His-hepatic GK (Homo sapiens).
-- reply 97
